# TARGET_SYSTEM: SAP05 D66E (purified, for ITC) (Aster Yellows phytoplasma strain Witches Broom (AYWB))
# ASSAY_PROCEDURE: ITC; SPL5^ZnF from the syringe (250 μM for wild-type SAP05, 200 μM for the SAP05–Rpn10^vWA complex or SAP05 mutants) into 20 μM partner in the cell; 25 °C, 20 mM HEPES pH 7.5, 150 mM NaCl; one-site binding model
REPORTED_PROPERTY: Kd (µM)
Answer in µM, number only, no unit symbol.

Which Kd is reported for this binder? ZnF domain of Arabidopsis thaliana SPL5, residues 60 to 127 (domain or fragment) SRLCQVDRCTVNLTEAKQYYRRHRVCEVHAKASAATVAGVRQRFCQQCSRFHELPEFDEAKRSCRRRL 17.7
